Reported selectivity ratio values for the following molecules.
Assay: Safety index, ratio of cytotoxicity against human HT-29 cells to antiamoebic activity against trophozoite stage of Entamoeba histolytica HM-1:IMSS
Type: toxicity, cell-based
Details: read-out: Selectivity Index
PARAMETER: selectivity ratio

{"columns": ["QUERY_SMILES", "PARAMETER", "MEASURED_VALUE"],
 "data": [
  ["Cc1ccc(S(=O)(=O)N2CCN(c3ccnc4cc(Cl)ccc34)CC2)cc1", "selectivity ratio", 14],
  ["CC(C)(C)c1ccc(S(=O)(=O)N2CCN(c3ccnc4cc(Cl)ccc34)CC2)cc1", "selectivity ratio", 24]
]}

====

Parameter viability at 48 h, 100 µM: see the listing below.
Assay: Cytotoxicity against human HT-29 cells assessed as cell viability at 100 uM after 48 hrs by MTT assay relative to control
Type: cell-based
Conditions: read-out: Activity
PARAMETER: viability at 48 h, 100 µM (%)

{"columns": ["QUERY_SMILES", "PARAMETER", "UNIT_OF_MEASURE", "MEASURED_VALUE"],
 "data": [
  ["CCCS(=O)(=O)N1CCN(c2ccnc3cc(Cl)ccc23)CC1", "viability at 48 h, 100 µM", "%", 67.1],
  ["O=S(=O)(c1ccc(Cl)cc1)N1CCN(c2ccnc3cc(Cl)ccc23)CC1", "viability at 48 h, 100 µM", "%", 61.3],
  ["COc1ccc(S(=O)(=O)N2CCN(c3ccnc4cc(Cl)ccc34)CC2)cc1", "viability at 48 h, 100 µM", "%", 68.1],
  ["O=[N+]([O-])c1ccccc1S(=O)(=O)N1CCN(c2ccnc3cc(Cl)ccc23)CC1", "viability at 48 h, 100 µM", "%", 86.1],
  ["CC(C)(C)c1ccc(S(=O)(=O)N2CCN(c3ccnc4cc(Cl)ccc34)CC2)cc1", "viability at 48 h, 100 µM", "%", 67.7]
]}
